target: T1, human CACNG1 nanodisc (Homo sapiens, UniProt Q06432); experiment: Biacore binding kinetics of anti-CACNG1 monoclonal antibodies to human CACNG1 nanodisc, antigen capture format; conditions: 25° C., 1:1 binding model
T1 construct: made in house
T1 sequence (Q06432 whole entry): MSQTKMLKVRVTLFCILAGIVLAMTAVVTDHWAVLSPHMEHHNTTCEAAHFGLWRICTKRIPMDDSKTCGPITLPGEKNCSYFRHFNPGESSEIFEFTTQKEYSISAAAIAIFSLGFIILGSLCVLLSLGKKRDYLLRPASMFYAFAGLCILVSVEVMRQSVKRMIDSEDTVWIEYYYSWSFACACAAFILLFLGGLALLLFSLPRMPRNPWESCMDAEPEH
Answer rule not met if ka is under 200000 M⁻¹ s⁻¹, and rule met if it is 200000 M⁻¹ s⁻¹ or more.

State whether the measured ka reaches 200000 M⁻¹ s⁻¹, counting equality as reaching it, for REGN10716: anti-hCACNG1 antibody, HCVR/LCVR SEQ ID NOs: 50/58, wildtype hIgG1 (antibody, V domains shown, hIgG1) VH: QVQLQESGPGLVKPSETLSLTCTVSGDSINNYYWTWLRQPPGKGLEWIGYIYYSGSANYNPSLKSRVTISVDTSKNQFSLKLNSVTAADTAVYYCARGAVKYFRHWGQGTLVTVSS VL: EIVLTQSPGTLSLSPGERATLSCRASQTINHNNLAWYQQRPGQAPRLLIYGASNRATAIPDRFSGSGSGTDFTLTISRLEPEDFEVYSCQQYGSLPLTFGGGTKVEIK rule met

Evaluate REGN10713: anti-hCACNG1 antibody, HCVR/LCVR SEQ ID NOs: 162/170, wildtype hIgG1 (antibody, V domains shown, hIgG1) VH: EVQLVESGGNLVQPGGSLRLSCAASGFTFTSHAMNWVRQAPGKGLEWVSVITGRGFDTHYADSVKGRFTISRDISKNTLYLQMNSLRAEDTAVYYCAKGLYDSGNYYIDYWGQGTLVTVSS VL: QSVLTQPPSVSAAPGQKVTISCSGSSSNIGNNYVSWYQQLPGTAPKLLIYDNNKRPSGIPDRFSGSKSGTSATLGITGLQTGDEADYYCGTWDLSLSFNWVFGGGTKLTVL : ka at minimum 200000 M⁻¹ s⁻¹? rule not met

State whether the measured ka reaches 200000 M⁻¹ s⁻¹, counting equality as reaching it, for REGN7660: anti-hCACNG1 antibody, HCVR/LCVR SEQ ID NOs: 130/138 (antibody, V domains shown) VH: EVQLVESGGGLVQPGGSLKLSCTASGLTLSDSAMHWVRQASGKGLEWVGRIRNKANRYATEYAASVKGRFTISRDDSKNTAYLQMNSLKTEDTAVYYCTRNWKIFLFDYWGQGTLVTVSS VL: EIVLTQSPGTLTLSPGERATLSCRASQSVGSKYLAWFQQKRGQAPRLLIYGASSRTSGIPDRISGSGSGTDFTLTISRLEPEDFAVYYCQQYGSSPWTFGQGTKVEIK rule met

Quick check, ka >= 200000 M⁻¹ s⁻¹? H2aM31941N: anti-hCACNG1 antibody, HCVR/LCVR SEQ ID NOs: 114/122 (antibody, V domains shown) VH: QVQLVQSGAEVKKPGASVKVSCKASGYAFTTYGITWVRQAPGQGLEWMGWISAYNGNTNYAEKVQGRFTMTTDTSTNTAYMELRSLRSDDTAVYFCARKGHYGSGTYYNPFGFDFWGQGTMVTVSS VL: EIMLMQSPGTLSLSPGERATLSCRASQSVSSSYLAWYQQKPGQAPRLLIYGASSRATDIPDRFSGSGSGTDFTLTISRLEPEDFAVYFCQQYYGSPWTFGQGTKVEIK rule met

Item H2aM31944N: anti-hCACNG1 antibody, HCVR/LCVR SEQ ID NOs: 82/90 (antibody, V domains shown) VH: QVQLVESGGGVVQPGRSLRLSCEASGITFRNYGMHWVRQAPGKGLEWVAVMWYDGSNKYYADSVKGRFTISRDNSKNTVYLQMNSLRAEDTAVYYCARRGHIATAAPFDYWGQGTLVTVSS VL: DIQMTQSPSSLSASVGDRVTISCRASQSISSYLNWYQQKPGKAPKVLMYAASSLQSGVPSRFSGSGSGTDFTLTISSLQPEDFATYYCQQSYSTPPITFGQGTRLEIK with ka of 200000 M⁻¹ s⁻¹ or above? rule met
